Values from paper PMC10600247

- Tested on: C. albicans (ATCC 10231)
- METHOD_NOTES: In vitro antifungal CFU assay
- Assay type: cell-based, Candida albicans
- MEASUREMENT_PARAMETERS: peptide 0.128 mg/mL + CuCl2 (0.9:1), 24 h, pH 5.4; per 0.1 mL
Residues, ends and D or L forms follow the SMILES beside them.

| COMPOUND | ASSAY_SYSTEM | mean CFU number ± S.D. |
| --- | --- | --- |
| CC[C@H](C)[C@H](NC(=O)[C@H](C)NC(=O)[C@@H](N)C(C)C)C(=O)N[C@@H](C)C(=O)N[C@@H](CC(C)C)C(=O)N[C@@H](CCCCN)C(=O)N[C@@H](C)C(=O)N[C@@H](C)C(=O)N[C@@H](Cc1c[nH]cn1)C(=O)N[C@@H](Cc1ccc(O)cc1)C(=O)N[C@@H](Cc1c[nH]cn1)C(=O)N[C@H](C(=O)N[C@@H](Cc1c[nH]cn1)C(=O)N[C@@H](CCCCN)C(=O)N[C@@H](CCC(=O)O)C(=O)O)[C@@H](C)O [WT, VAIALKAAHYHTHKE, reference compound] (H-VAIALKAAHYHTHKE-OH) | C. albicans (ATCC 10231) | 1,790 ± 393 CFU |

###

Catalogue of mean CFU number ± S.D. readings, one per entry.
- Test system: E. coli (ATCC 25922)
- METHOD_NOTES: In vitro anti-E. coli CFU assay
- Assay type: cell-based, Escherichia coli
- MEASUREMENT_PARAMETERS: peptide 0.128 mg/mL + CuCl2 (0.9:1), 3 h, pH 5.4; per 0.1 mL
Residues, ends and D or L forms follow the SMILES beside them.

| COMPOUND | mean CFU number ± S.D. / CFU |
| --- | --- |
| CC[C@H](C)[C@H](NC(=O)[C@H](C)NC(=O)[C@@H](N)C(C)C)C(=O)N[C@@H](C)C(=O)N[C@@H](CC(C)C)C(=O)N[C@@H](CCCCN)C(=O)N[C@@H](C)C(=O)N[C@@H](C)C(=O)N[C@@H](Cc1c[nH]cn1)C(=O)N[C@@H](Cc1ccc(O)cc1)C(=O)N[C@@H](Cc1c[nH]cn1)C(=O)N[C@H](C(=O)N[C@@H](Cc1c[nH]cn1)C(=O)N[C@@H](CCCCN)C(=O)N[C@@H](CCC(=O)O)C(=O)O)[C@@H](C)O [WT, VAIALKAAHYHTHKE, reference compound] (H-VAIALKAAHYHTHKE-OH) | 72 |
| CC[C@H](C)[C@H](NC(=O)[C@H](C)NC(=O)[C@@H](NC(C)=O)C(C)C)C(=O)N[C@@H](C)C(=O)N[C@@H](CC(C)C)C(=O)N[C@@H](CCCCN)C(=O)N[C@@H](C)C(=O)N[C@@H](C)C(=O)N[C@@H](Cc1c[nH]cn1)C(=O)N[C@@H](Cc1ccc(O)cc1)C(=O)N[C@@H](Cc1c[nH]cn1)C(=O)N[C@H](C(=O)N[C@@H](Cc1c[nH]cn1)C(=O)N[C@@H](CCCCN)C(=O)N[C@@H](CCC(=O)O)C(N)=O)[C@@H](C)O [L2, Ac-VAIALKAAHYHTHKE-NH2] (Ac-VAIALKAAHYHTHKE-NH2) | 190 |
| CC[C@H](C)[C@H](NC(=O)[C@H](C)NC(=O)[C@@H](NC(C)=O)C(C)C)C(=O)N[C@@H](C)C(=O)N[C@@H](CC(C)C)C(=O)N[C@@H](CCCCN)C(=O)N[C@@H](C)C(=O)N[C@@H](C)C(=O)N[C@@H](Cc1c[nH]cn1)C(=O)N[C@@H](Cc1ccc(O)cc1)C(=O)N[C@@H](Cc1c[nH]cn1)C(=O)N[C@H](C(=O)N[C@@H](Cc1c[nH]cn1)C(=O)N[C@@H](CCCCN)C(=O)N[C@@H](CCC(=O)O)C(=O)O)[C@@H](C)O [L1, Ac-VAIALKAAHYHTHKE] (Ac-VAIALKAAHYHTHKE-OH) | 151 |
| CC[C@H](C)[C@H](NC(=O)[C@H](C)NC(=O)[C@@H](N)C(C)C)C(=O)N[C@@H](C)C(=O)N[C@@H](CC(C)C)C(=O)N[C@@H](CCCCN)C(=O)N[C@@H](C)C(=O)N[C@@H](C)C(=O)N[C@@H](Cc1c[nH]cn1)C(=O)N[C@@H](Cc1ccc(O)cc1)C(=O)N[C@@H](Cc1c[nH]cn1)C(=O)N[C@H](C(=O)N[C@@H](Cc1c[nH]cn1)C(=O)N[C@@H](CCCCN)C(=O)N[C@@H](CCC(=O)O)C(N)=O)[C@@H](C)O [L3, VAIALKAAHYHTHKE-NH2] (H-VAIALKAAHYHTHKE-NH2) | 191 |

###

- Test system: E. coli (ATCC 25922)
- METHOD_NOTES: In vitro anti-E. coli CFU assay
- Assay type: cell-based, Escherichia coli
- MEASUREMENT_PARAMETERS: peptide 0.064 mg/mL + ZnCl2 (0.9:1), 24 h, pH 5.4; per 0.1 mL
Residues, ends and D or L forms follow the SMILES beside them.
Catalogue of mean CFU number ± S.D. readings, one per entry.
MEASUREMENT_TYPE: mean CFU number ± S.D. (CFU)

| MOLECULE | ASSAY_SYSTEM | EXPERIMENTAL_RESULT |
| --- | --- | --- |
| CC[C@H](C)[C@H](NC(=O)[C@H](C)NC(=O)[C@@H](N)C(C)C)C(=O)N[C@@H](C)C(=O)N[C@@H](CC(C)C)C(=O)N[C@@H](CCCCN)C(=O)N[C@@H](C)C(=O)N[C@@H](C)C(=O)N[C@@H](Cc1c[nH]cn1)C(=O)N[C@@H](Cc1ccc(O)cc1)C(=O)N[C@@H](Cc1c[nH]cn1)C(=O)N[C@H](C(=O)N[C@@H](Cc1c[nH]cn1)C(=O)N[C@@H](CCCCN)C(=O)N[C@@H](CCC(=O)O)C(=O)O)[C@@H](C)O [WT, VAIALKAAHYHTHKE, reference compound] (H-VAIALKAAHYHTHKE-OH) | E. coli (ATCC 25922) | 249 |
| CC[C@H](C)[C@H](NC(=O)[C@H](C)NC(=O)[C@@H](N)C(C)C)C(=O)N[C@@H](C)C(=O)N[C@@H](CC(C)C)C(=O)N[C@@H](CCCCN)C(=O)N[C@@H](C)C(=O)N[C@@H](C)C(=O)N[C@@H](Cc1c[nH]cn1)C(=O)N[C@@H](Cc1ccc(O)cc1)C(=O)N[C@@H](Cc1c[nH]cn1)C(=O)N[C@H](C(=O)N[C@@H](Cc1c[nH]cn1)C(=O)N[C@@H](CCCCN)C(=O)N[C@@H](CCC(=O)O)C(N)=O)[C@@H](C)O [L3, VAIALKAAHYHTHKE-NH2] (H-VAIALKAAHYHTHKE-NH2) | E. coli (ATCC 25922) | 186 |
| CC[C@H](C)[C@H](NC(=O)[C@H](C)NC(=O)[C@@H](NC(C)=O)C(C)C)C(=O)N[C@@H](C)C(=O)N[C@@H](CC(C)C)C(=O)N[C@@H](CCCCN)C(=O)N[C@@H](C)C(=O)N[C@@H](C)C(=O)N[C@@H](Cc1c[nH]cn1)C(=O)N[C@@H](Cc1ccc(O)cc1)C(=O)N[C@@H](Cc1c[nH]cn1)C(=O)N[C@H](C(=O)N[C@@H](Cc1c[nH]cn1)C(=O)N[C@@H](CCCCN)C(=O)N[C@@H](CCC(=O)O)C(N)=O)[C@@H](C)O [L2, Ac-VAIALKAAHYHTHKE-NH2] (Ac-VAIALKAAHYHTHKE-NH2) | E. coli (ATCC 25922) | 146 |

###

Catalogue of half-life readings, one per entry.
- METHOD_NOTES: in vitro
- MEASUREMENT_PARAMETERS: human, pH 7.4
Residues, ends and D or L forms follow the SMILES beside them.

| COMPOUND | half-life |
| --- | --- |
| CC[C@H](C)[C@H](NC(=O)[C@H](C)NC(=O)[C@@H](NC(C)=O)C(C)C)C(=O)N[C@@H](C)C(=O)N[C@@H](CC(C)C)C(=O)N[C@@H](CCCCN)C(=O)N[C@@H](C)C(=O)N[C@@H](C)C(=O)N[C@@H](Cc1c[nH]cn1)C(=O)N[C@@H](Cc1ccc(O)cc1)C(=O)N[C@@H](Cc1c[nH]cn1)C(=O)N[C@H](C(=O)N[C@@H](Cc1c[nH]cn1)C(=O)N[C@@H](CCCCN)C(=O)N[C@@H](CCC(=O)O)C(N)=O)[C@@H](C)O [L2, Ac-VAIALKAAHYHTHKE-NH2] (Ac-VAIALKAAHYHTHKE-NH2) | ~68 min |
| CC[C@H](C)[C@H](NC(=O)[C@H](C)NC(=O)[C@@H](N)C(C)C)C(=O)N[C@@H](C)C(=O)N[C@@H](CC(C)C)C(=O)N[C@@H](CCCCN)C(=O)N[C@@H](C)C(=O)N[C@@H](C)C(=O)N[C@@H](Cc1c[nH]cn1)C(=O)N[C@@H](Cc1ccc(O)cc1)C(=O)N[C@@H](Cc1c[nH]cn1)C(=O)N[C@H](C(=O)N[C@@H](Cc1c[nH]cn1)C(=O)N[C@@H](CCCCN)C(=O)N[C@@H](CCC(=O)O)C(=O)O)[C@@H](C)O [WT, VAIALKAAHYHTHKE, reference compound] (H-VAIALKAAHYHTHKE-OH) | 18 min |
| CC[C@H](C)[C@H](NC(=O)[C@H](C)NC(=O)[C@@H](N)C(C)C)C(=O)N[C@@H](C)C(=O)N[C@@H](CC(C)C)C(=O)N[C@@H](CCCCN)C(=O)N[C@@H](C)C(=O)N[C@@H](C)C(=O)N[C@@H](Cc1c[nH]cn1)C(=O)N[C@@H](Cc1ccc(O)cc1)C(=O)N[C@@H](Cc1c[nH]cn1)C(=O)N[C@H](C(=O)N[C@@H](Cc1c[nH]cn1)C(=O)N[C@@H](CCCCN)C(=O)N[C@@H](CCC(=O)O)C(N)=O)[C@@H](C)O [L3, VAIALKAAHYHTHKE-NH2] (H-VAIALKAAHYHTHKE-NH2) | ~20 min |
